test.system: IRAK4 (Homo sapiens, UniProt Q9NWZ3)
Construct: with 0.1 nM IRAK4, 1.6 μM of biotinylated peptide substrate and 10 μM ATP
Sequence (Q9NWZ3 whole entry): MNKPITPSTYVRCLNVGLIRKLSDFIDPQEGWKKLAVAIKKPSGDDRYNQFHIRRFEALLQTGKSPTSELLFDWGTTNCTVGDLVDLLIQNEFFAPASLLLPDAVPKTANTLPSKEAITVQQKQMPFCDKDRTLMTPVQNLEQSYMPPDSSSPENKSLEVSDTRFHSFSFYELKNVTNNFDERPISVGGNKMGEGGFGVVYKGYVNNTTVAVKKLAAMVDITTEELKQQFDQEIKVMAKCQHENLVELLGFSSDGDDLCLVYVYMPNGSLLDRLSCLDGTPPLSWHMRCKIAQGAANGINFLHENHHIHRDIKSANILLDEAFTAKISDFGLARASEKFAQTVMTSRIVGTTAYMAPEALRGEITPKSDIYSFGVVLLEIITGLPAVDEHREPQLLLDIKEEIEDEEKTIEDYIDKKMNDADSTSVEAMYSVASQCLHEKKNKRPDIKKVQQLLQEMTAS
assay.summary: IRAK4 MSD Biochemical Assay (1 mM ATP, 2 h)
measurement.conditions: room temperature, read-out: IRAK4 MSD Biochemical Assay (1 mM ATP, 2 h) IC50
Procedure: The 2-hour 10 μM ATP Biochemical Assay employs a MesoScale Detection (MSD) format. The activity is quenched with 11 μl of 70 mM EDTA, pH 8. To detect the phosphorylated biotinylated peptide substrate, 30 μl of the quenched reaction mixture is added to equivalent wells of a 384 well streptavidin coated MesoScale plate (Meso Scale Discovery #L21SA-1). […]
Threshold 2 nM: IC50 strictly smaller gives Criterion met, otherwise Criterion not met.

Before answering, review these 5 worked examples.
CC(C)Oc1cc2nn(C)cc2cc1C(=O)Nc1cccc(C(F)F)n1 :: Criterion not met
CC(C)Oc1nc2nn(C[C@H]3CCOC3)cc2cc1C(=O)Nc1cccc2ccnn12 (single isomer, unassigned) :: Criterion met
CC(C)Oc1cc2nn(C3CCOCC3)cc2cc1C(=O)Nc1cccc(C(F)F)n1.Cl [Example 25, hydrochloride] :: Criterion met
CC(C)Oc1cc2nn(C[C@@H]3CCOC3)cc2cc1C(=O)Nc1cccc(C(F)F)n1 (single isomer, unassigned) :: Criterion met
CC(C)Oc1cc2nn([C@@H]3CCOC(C)(C)C3)cc2cc1C(=O)Nc1cccc(C(F)F)n1 (single isomer, unassigned) :: Criterion met

From here, focus on the item given below.
Task: IC50 strictly < 2 nM for this compound? COc1cccc(NC(=O)c2cc(OC)c3nn(CCC(C)(C)OC)cc3c2)n1.Cl [Example 15, hydrochloride]
Output: Criterion not met

###

test.system: MDR1 (P-gp) (Homo sapiens)
Construct: host or cells: MDCK cells
assay.summary: MDR1-MDCK assay (efflux ratio)
Format: in vitro ADME
measurement.conditions: human, MDCK-MDR1, 1 μM compound, 120 minutes incubation; read-out: MDR1-MDCK Efflux Ratio; (B-A/A-B)
Respond with y for efflux ratio at 120 min, 1 μM values of 1 and above, n for values below.

Task: Test whether the molecule CC(C)Oc1cc2nn(C34CCC(C)(C3)OC4)cc2cc1C(=O)Nc1cccn(C)c1=O (stereo not drawn) [Example 57] records efflux ratio at 120 min, 1 μM of 1 or higher.
Output: y

###

test.system: MDR1 (P-gp) (Homo sapiens, UniProt P08183)
Construct: host or cells: MDCK cells
Sequence (P08183 whole entry): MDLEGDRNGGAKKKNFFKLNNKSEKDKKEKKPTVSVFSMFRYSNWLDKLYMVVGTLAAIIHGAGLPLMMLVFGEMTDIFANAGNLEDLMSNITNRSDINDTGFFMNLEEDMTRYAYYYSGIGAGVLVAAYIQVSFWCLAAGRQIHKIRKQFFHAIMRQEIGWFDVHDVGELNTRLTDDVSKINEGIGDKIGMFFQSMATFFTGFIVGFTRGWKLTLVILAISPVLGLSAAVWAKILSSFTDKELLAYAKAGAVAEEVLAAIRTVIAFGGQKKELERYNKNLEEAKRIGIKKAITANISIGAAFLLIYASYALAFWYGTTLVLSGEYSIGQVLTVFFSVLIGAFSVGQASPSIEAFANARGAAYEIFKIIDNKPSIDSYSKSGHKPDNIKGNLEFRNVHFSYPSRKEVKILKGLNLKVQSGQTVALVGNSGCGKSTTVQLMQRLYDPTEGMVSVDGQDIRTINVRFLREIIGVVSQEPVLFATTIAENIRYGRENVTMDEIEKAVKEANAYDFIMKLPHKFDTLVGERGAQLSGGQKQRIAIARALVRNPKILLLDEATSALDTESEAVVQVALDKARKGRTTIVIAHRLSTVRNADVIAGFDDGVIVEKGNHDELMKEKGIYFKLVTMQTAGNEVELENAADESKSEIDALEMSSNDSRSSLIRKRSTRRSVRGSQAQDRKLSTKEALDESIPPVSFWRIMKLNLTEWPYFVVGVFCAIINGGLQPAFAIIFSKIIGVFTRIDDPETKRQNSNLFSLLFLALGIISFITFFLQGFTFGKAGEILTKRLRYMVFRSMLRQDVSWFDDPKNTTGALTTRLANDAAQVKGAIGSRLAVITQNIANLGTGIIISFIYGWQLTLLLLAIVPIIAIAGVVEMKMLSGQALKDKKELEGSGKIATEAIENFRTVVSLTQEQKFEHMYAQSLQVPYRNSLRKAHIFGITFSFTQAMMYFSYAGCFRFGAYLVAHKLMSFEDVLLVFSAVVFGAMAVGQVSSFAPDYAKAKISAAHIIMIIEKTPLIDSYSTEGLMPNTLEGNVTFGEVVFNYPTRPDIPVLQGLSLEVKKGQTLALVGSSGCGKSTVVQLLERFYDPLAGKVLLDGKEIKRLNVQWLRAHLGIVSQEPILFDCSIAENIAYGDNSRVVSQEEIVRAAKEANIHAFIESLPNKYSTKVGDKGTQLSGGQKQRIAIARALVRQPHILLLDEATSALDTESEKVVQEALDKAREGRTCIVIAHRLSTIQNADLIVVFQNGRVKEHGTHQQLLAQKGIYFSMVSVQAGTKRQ
assay.summary: MDR1-MDCK assay (efflux ratio)
Assay type: in vitro ADME
measurement.conditions: human, MDCK-MDR1, 1 μM compound, 120 minutes incubation; read-out: MDR1-MDCK Efflux Ratio; (B-A/A-B)
Threshold 3: efflux ratio at 120 min, 1 μM strictly smaller gives class 1, otherwise class 0.

Before answering, review these 5 worked examples.
CC(C)Oc1nc2nn(CC3CCOC3)cc2cc1C(=O)Nc1ccccn1 (stereo not drawn) :: class 1
CC(C)Oc1nc2nn(C[C@@H]3CCOC3)cc2cc1C(=O)Nc1cccc2ccnn12 (single isomer, unassigned) :: class 1
Cl.O=C(Nc1cccc(C(F)F)n1)c1cc2cn(C3CCOCC3)nc2cc1OCC1CC(F)(F)C1 :: class 1
CC(C)Oc1nc2nn(CC3CCOC3)cc2cc1C(=O)Nc1cnn2cccnc12 (stereo not drawn) :: class 0
COCCCn1cc2cc(C(=O)Nc3cccc(C(F)(F)F)n3)c(OC(C)C)nc2n1.Cl :: class 1

Task: efflux ratio at 120 min, 1 μM strictly < 3 for this compound? `CC(C)Oc1nc2nn(CCC(C)(C)O)cc2cc1C(=O)Nc1cccc(C(F)F)n1`
Output: class 0

Task: Now the same for `COCCCn1cc2cc(C(=O)Nc3cccc(C(F)F)n3)c(OC)cc2n1.Cl`
Output: class 1

Task: Now the same for Cc1cnc2c(NC(=O)c3cc4cn(C[C@@H]5CCOC5)nc4nc3OC(C)C)cnn2c1 (single isomer, unassigned)
Output: class 0

Task: Now the same for CC(C)Oc1nc2nn(C3CCOC3)cc2cc1C(=O)Nc1cnn2cccnc12 (stereo not drawn)
Output: class 1

###

test.system: MDR1 (P-gp) (Homo sapiens, UniProt P08183)
Construct: host or cells: MDCK cells
assay.summary: MDR1-MDCK assay (efflux ratio)
Assay type: in vitro ADME
measurement.conditions: human, MDCK-MDR1, 1 μM compound, 120 minutes incubation; read-out: MDR1-MDCK Efflux Ratio; (B-A/A-B)
Counter-ions that a name gives are not always drawn.
observed.property: efflux ratio at 120 min, 1 μM
Answer as a number with no unit attached.

As a guide, the following entries are already answered.
CC(C)Oc1nc2nn(CC3CCOC3)cc2cc1C(=O)Nc1ccn(C(F)F)n1 (centres unmarked) [Example 80] :: 3.1
CC(C)Oc1nc2nn(C3CCOCC3)cc2cc1C(=O)Nc1cccc(C(F)F)n1 [Example 63] :: 1
CC(C)Oc1cc2nn(C34COC(C)(C3)C4)cc2cc1C(=O)Nc1cnn2cc(F)cnc12 [Example 96, trifluoroacetate] :: 1.6

Task: Missing value: efflux ratio at 120 min, 1 μM, MDR1 (P-gp) (Homo sapiens, UniProt P08183), entry CO[C@H]1C[C@H](n2cc3cc(C(=O)Nc4cccc(C(F)F)n4)c(OC(C)C)cc3n2)C1 [Example 74] . Fill in?
Output: 0.5

Task: Now the same for CC(C)Oc1cc2nn(C3CCOCC3)cc2cc1C(=O)Nc1cccc(C(F)F)n1.Cl [Example 25]
Output: 0.6

Where these numbers come from: patent US20230002361A1
